Tested on: L1210 leukemia ip in BDF1 mice, survival T/C
Assay: NCI In Vivo Anticancer Drug Screen. Data for tumor model L1210 Leukemia (intraperitoneal) in B6D2F1 (BDF1) mice
Details: endpoint: mean survival time; dose: 20.0 mg/kg/injection; schedule: Q01DX001 (ip); vehicle: saline; higher = longer survival
Toxic doses and inconclusive results are not listed.
T/C by entry:

Use these answered entries as a reference point.
CCOC(=O)/C(C#N)=C(\C)CC(C)C | 95 % of control
CCOC(=O)NC#N (tested in a mixture with another compound) | 102 % of control
CC1(C)N=C(N)N=C(N)N1c1cccc(OCCOc2ccc(N)cc2)c1 | 96 % of control

Switching to the query record.
Task item: # get_value(readout= T/C, system= L1210 leukemia ip in BDF1 mice, survival T/C) for "N#CSCC(=O)OC1CCCCC1"
Reply: 96 % of control

###

Test system: L1210 leukemia ip in BDF1 mice, survival T/C
Test: NCI In Vivo Anticancer Drug Screen. Data for tumor model L1210 Leukemia (intraperitoneal) in B6D2F1 (BDF1) mice
Conditions: endpoint: mean survival time; dose: 400.0 mg/kg/injection; schedule: Q01DX001 (ip); vehicle: Klucel (hydroxypropylcellulose) (HPC); higher = longer survival
Toxic doses and inconclusive results are not listed.
T/C by entry:

CN1c2ccccc2C(C)(C)C12C=Cc1cc([N+](=O)[O-])cc([N+](=O)[O-])c1O2 (configuration not stated) | 97 % of control
N#CC(CCCc1ccccc1)c1ccc(N)cc1 (configuration not stated) | 103 % of control
Cc1cc(OC(=O)Nc2cc(Cl)ccc2C)c(C(C)C)cc1Cl | 88 % of control
O=C(NC1CCCCC1)c1ccc([N+](=O)[O-])cc1 | 101 % of control

Task item: Consider the compound shown here: "Cc1cc(C)n(/N=C/c2ccccn2)c(=O)c1C#N" What is its recorded T/C?
Reply: 102 % of control

Task item: Consider the compound shown here: "CCOC(=O)c1ccc(CCCCl)cc1" What is its recorded T/C?
Reply: 91 % of control

Task item: Consider the compound shown here: "N=C1C(=O)c2ccccc2-c2ccccc21" What is its recorded T/C?
Reply: 98 % of control

###

System: L1210 leukemia ip in BDF1 mice, survival T/C
Experiment: NCI In Vivo Anticancer Drug Screen. Data for tumor model L1210 Leukemia (intraperitoneal) in B6D2F1 (BDF1) mice
Conditions: endpoint: mean survival time; dose: 400.0 mg/kg/injection; schedule: Q01DX009 (ip); vehicle: saline; higher = longer survival
Toxic doses and inconclusive results are not listed.
reportedProperty: T/C

CC(=O)c1c[nH]c2ccccc12 | 95 % of control

Task item: # get_value(readout= T/C, system= L1210 leukemia ip in BDF1 mice, survival T/C) for "COc1ccc(C(C)=O)c(OC)c1"
Reply: 102 % of control

Task item: # get_value(readout= T/C, system= L1210 leukemia ip in BDF1 mice, survival T/C) for CCCCCCC(O)C/C=C\CCCCCCCCO (configuration not stated)
Reply: 103 % of control

Task item: # get_value(readout= T/C, system= L1210 leukemia ip in BDF1 mice, survival T/C) for "NCS(=O)(=O)O"
Reply: 88 % of control

Task item: # get_value(readout= T/C, system= L1210 leukemia ip in BDF1 mice, survival T/C) for "O=S(O)O"
Reply: 100 % of control

Task item: # get_value(readout= T/C, system= L1210 leukemia ip in BDF1 mice, survival T/C) for COc1ccc(C(Nc2ccc([N+](=O)[O-])cc2)P(=O)(c2ccccc2)c2ccccc2)cc1 (configuration not stated)
Reply: 106 % of control

Task item: # get_value(readout= T/C, system= L1210 leukemia ip in BDF1 mice, survival T/C) for "O=[N+]([O-])c1ccc(N/N=C\c2ccc3ccccc3n2)cc1"
Reply: 91 % of control

###

Tested on: L1210 leukemia ip in BDF1 mice, survival T/C
Assay: NCI In Vivo Anticancer Drug Screen. Data for tumor model L1210 Leukemia (intraperitoneal) in B6D2F1 (BDF1) mice
Details: endpoint: mean survival time; dose: 25.0 mg/kg/injection; schedule: Q04DX002 (ip); vehicle: Klucel (hydroxypropylcellulose) (HPC); higher = longer survival
Toxic doses and inconclusive results are not listed.
T/C by entry:

COC1OC(CCl)C(OS(C)(=O)=O)C(OC(=O)c2ccccc2)C1OC(=O)c1ccccc1 (centres undefined) | 102 % of control

Switching to the query record.
Task item: Consider the compound shown here: CC(C)(C)NCC1C(c2ccccc2)C1c1ccccc1 (centres undefined) What is its recorded T/C?
Reply: 92 % of control

###

System: L1210 leukemia ip in BDF1 mice, survival T/C
Experiment: NCI In Vivo Anticancer Drug Screen. Data for tumor model L1210 Leukemia (intraperitoneal) in B6D2F1 (BDF1) mice
Details: endpoint: mean survival time; dose: 200.0 mg/kg/injection; schedule: Q01DX009 (ip); vehicle: saline; higher = longer survival
Toxic doses and inconclusive results are not listed.
reportedProperty: T/C

CCOC(=O)NC(=O)CC | 110 % of control

Task item: Consider the compound shown here: "Cc1ccccc1C(=O)Nc1ccccc1" What is its recorded T/C?
Reply: 103 % of control

Task item: Consider the compound shown here: "Cc1ccc(S(=O)(=O)N2CCC(Br)(Br)C(=O)c3ccccc32)cc1" What is its recorded T/C?
Reply: 100 % of control

Task item: Consider the compound shown here: CC(C)(SCC(N)C(=O)O)C(N)C(=O)O (stereo not given) What is its recorded T/C?
Reply: 94 % of control

Task item: Consider the compound shown here: C[N+]1(C)C2CC(=O)CC1C1CC12 (stereo not given) What is its recorded T/C?
Reply: 88 % of control

Task item: Consider the compound shown here: "COc1ccccc1[P+](CO)(c1ccccc1OC)c1ccccc1OC" What is its recorded T/C?
Reply: 92 % of control

Task item: Consider the compound shown here: "O=[N+]([O-])c1ccc(N/N=C\c2ccc3ccccc3n2)cc1" What is its recorded T/C?
Reply: 104 % of control

###

T/C by entry:
System: L1210 leukemia ip in BDF1 mice, survival T/C
Assay: NCI In Vivo Anticancer Drug Screen. Data for tumor model L1210 Leukemia (intraperitoneal) in B6D2F1 (BDF1) mice
Details: endpoint: mean survival time; dose: 100.0 mg/kg/injection; schedule: Q04DX003 (ip); vehicle: saline with Tween-80; higher = longer survival
Inconclusive results and toxic doses are left out.

Use these answered entries as a reference point.
O=C(OCC(OC(=O)c1ccccc1)C1OCC(OC(=O)c2ccccc2)C1OC(=O)c1ccccc1)c1ccccc1 (stereo unspecified) | 88 % of control
CC[N+](C)(CC)CCCNC(=O)C(c1ccccc1)c1ccccc1 | 100 % of control
CCOC(=O)c1cc2sccc2[nH]1 | 100 % of control

Task item: Consider the compound shown here: "O=C(Nc1ccc([N+](=O)[O-])cc1[N+](=O)[O-])C(Cl)(Cl)Cl" What is its recorded T/C?
Reply: 94 % of control

Task item: Consider the compound shown here: "CC(C)(C)NC/C(=C\c1ccccc1)C(=O)c1ccccc1" What is its recorded T/C?
Reply: 112 % of control

Task item: Consider the compound shown here: "CCSCc1cnc(N)nc1-c1ccccc1" What is its recorded T/C?
Reply: 97 % of control

###

Test system: L1210 leukemia ip in BDF1 mice, survival T/C
Test: NCI In Vivo Anticancer Drug Screen. Data for tumor model L1210 Leukemia (intraperitoneal) in B6D2F1 (BDF1) mice
Details: endpoint: mean survival time; dose: 50.0 mg/kg/injection; schedule: Q01DX009 (ip); vehicle: saline
Inconclusive results and toxic doses are left out. Cut-off read from the data, not from the text of the source: active = T/C of 150% or more; inactive = T/C below 125%.
Permitted responses: active, inactive

The examples below pair each entry with its known result.
CC(=O)Nc1ccc2nc3ccc(NC(C)=O)cc3[n+](-c3ccccc3)c2c1 | active
CC[As](=O)(O)CC | inactive
CCN(CC)Cc1cc(Nc2c3ccc([N+](=O)[O-])cc3nc3ccc(OC)cc23)ccc1O | inactive
CNC(CNC(CO)CC(C)C)Cc1ccc(OCc2ccccc2)cc1 (configuration not stated) | inactive
C=C1C(=O)OC2CCCCCCC12 (configuration not stated) | inactive
CCN(CC)Cc1cc(Nc2c3ccccc3nc3cc(Cl)ccc23)ccc1O | inactive

Task item: Record request — test call for "CCN(CC)CCOC(=O)c1ccco1"
Reply: inactive

###

Tested on: L1210 leukemia ip in BDF1 mice, survival T/C
Experiment: NCI In Vivo Anticancer Drug Screen. Data for tumor model L1210 Leukemia (intraperitoneal) in B6D2F1 (BDF1) mice
Settings: endpoint: mean survival time; dose: 100.0 mg/kg/injection; schedule: Q01DX001 (ip); vehicle: carboxymethylcellulose (CMC); higher = longer survival
Toxic doses and inconclusive results are not listed.
T/C by entry:

Task item: Consider the compound shown here: "Cn1c2c(c(=O)[nH]c1=O)OCN(Cc1ccccc1)C2" What is its recorded T/C?
Reply: 100 % of control

Task item: Consider the compound shown here: "Oc1ccc(Cl)cc1C1N(Cc2ccc(N(CCCl)CCCl)cc2Cl)CCCN1Cc1ccc(N(CCCl)CCCl)cc1Cl" What is its recorded T/C?
Reply: 96 % of control

Task item: Consider the compound shown here: "CC12CC3CC(C)(C1)CC(O)(C3)C2" What is its recorded T/C?
Reply: 98 % of control

Task item: Consider the compound shown here: "CCCCCCCCCCCCOB(OCCCCCCCCCCCC)OCCCCCCCCCCCC" What is its recorded T/C?
Reply: 102 % of control
